The compounds listed here are annotated with their pIC50.
# Test system: P815
# Run Description: Cytotoxicity tested against P815 (murine mastocytoma) cell line using MTT assay
# Assay type: functional, cell-based
# Setup Conditions: Mus musculus
Scale: negative log10 of molar concentration, which is what pIC50 denotes.

Here are 3 compounds together with their reported answers.
NCCCCNC(=O)c1cc(NC(=O)c2nc(NC(=O)CCCC(=O)Nc3ccc4oc(C(=O)N5CC(CCl)c6ccc(O)cc65)cc4c3)c[nH]2)c[nH]1 (centres undefined)	4.11
NCCCCNC(=O)c1cc(NC(=O)c2cc(NC(=O)CCCC(=O)Nc3ccc4oc(C(=O)N5CC(CCl)c6ccc(O)cc65)cc4c3)c[nH]2)c[nH]1 (centres undefined)	4.39
NCCCCNC(=O)c1nc(NC(=O)c2nc(NC(=O)CCCC(=O)Nc3ccc4oc(C(=O)N5CC(CCl)c6ccc(O)cc65)cc4c3)c[nH]2)c[nH]1 (centres undefined)	4.28

Turning now to a further compound:
Need pIC50, item NCCCCNC(=O)c1nc(NC(=O)c2cc(NC(=O)CCCC(=O)Nc3ccc4oc(C(=O)N5CC(CCl)c6ccc(O)cc65)cc4c3)c[nH]2)c[nH]1 (centres undefined)
5.04
